Molecular target: UniProt:Q99ZW2
Experiment: eGFP disruption assay, SpCas9, U2OS.eGFP.PEST cells
Type: cell-based
Conditions: replicate 1; normalized, lower control about 0, upper control about 1
Metric Name: Normalized Z rep1
Reply briefly: the number, and no unit.

Please review the following examples before continuing.
>>> recorded_measurement("CCn1c(CCC(=O)O)nc2cc(S(N)(=O)=O)ccc21 [Compound T5380152]")
"−0.09"
>>> recorded_measurement("O=C(NC1CCCCC1)c1cccc(Oc2cc(-c3ccccc3)ncn2)c1 [Compound L663-0999]")
0.08

# Normalized Z rep1 lookup, item Cc1nn(-c2ccccc2)c(C)c1CCc1nnc2sc(-c3ccccc3F)nn12 [Compound D727-0713]
0.05

* * *

Molecular target: SaCas9 (Staphylococcus aureus, UniProt J7RUA5)
Sequence (J7RUA5 1-1053): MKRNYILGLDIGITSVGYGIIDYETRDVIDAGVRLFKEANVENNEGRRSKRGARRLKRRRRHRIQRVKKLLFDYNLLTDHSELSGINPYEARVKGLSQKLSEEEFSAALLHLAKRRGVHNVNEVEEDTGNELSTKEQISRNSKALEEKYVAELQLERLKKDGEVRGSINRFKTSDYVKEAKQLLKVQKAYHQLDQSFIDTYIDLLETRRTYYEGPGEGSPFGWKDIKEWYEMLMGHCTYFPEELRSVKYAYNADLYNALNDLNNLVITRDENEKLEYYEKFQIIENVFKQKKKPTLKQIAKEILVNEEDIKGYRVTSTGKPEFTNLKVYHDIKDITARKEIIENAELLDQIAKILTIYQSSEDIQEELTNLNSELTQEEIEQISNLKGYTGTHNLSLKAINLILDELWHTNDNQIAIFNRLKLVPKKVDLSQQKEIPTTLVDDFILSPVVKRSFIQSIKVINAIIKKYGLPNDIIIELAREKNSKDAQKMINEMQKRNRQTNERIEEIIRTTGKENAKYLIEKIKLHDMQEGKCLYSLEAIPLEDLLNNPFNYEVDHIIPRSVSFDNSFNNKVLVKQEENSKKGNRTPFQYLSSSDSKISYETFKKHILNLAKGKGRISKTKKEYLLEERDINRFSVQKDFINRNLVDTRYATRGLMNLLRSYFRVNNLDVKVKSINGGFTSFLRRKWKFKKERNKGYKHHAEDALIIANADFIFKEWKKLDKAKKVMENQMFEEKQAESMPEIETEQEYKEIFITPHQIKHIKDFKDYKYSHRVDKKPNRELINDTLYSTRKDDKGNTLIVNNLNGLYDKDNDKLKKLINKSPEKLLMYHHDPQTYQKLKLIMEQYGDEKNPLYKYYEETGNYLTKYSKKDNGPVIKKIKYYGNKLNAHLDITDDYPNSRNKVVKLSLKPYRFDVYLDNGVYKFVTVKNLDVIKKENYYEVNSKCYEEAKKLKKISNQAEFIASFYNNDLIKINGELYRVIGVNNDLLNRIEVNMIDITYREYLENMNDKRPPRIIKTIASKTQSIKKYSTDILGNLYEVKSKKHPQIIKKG
Experiment: Strand displacement assay, SaCas9 primary screen
Format: biochemical
Details: SaCas9 primary screen, Auto Zscore, replicate 2
// values below are reported Auto Zscore Rep 2
Reply briefly: the number, and no unit.

Please review the following examples before continuing.
>>> recorded_measurement("Cc1c(NC(=O)C2=Cc3sc4c(c3CS2)CCCC4)c(=O)n(-c2ccccc2)n1C [Cpd E722-2603]")
2.714
>>> recorded_measurement("COc1ccc(C2CC(=O)C3=C(C2)Nc2onc(C)c2C3c2ccc(O)c(O)c2)cc1OC (stereo not drawn) [Cpd D588-0034]")
"−1.181"
>>> recorded_measurement("Cc1cc(C)c(S(=O)(=O)Nc2cnc(N3CCCC3)c(C(=O)O)c2)c(C)c1 [Cpd F293-0426]")
1.196
>>> recorded_measurement("c1ccc(Cc2nn3c(-c4cccnc4)nnc3s2)cc1 [Compound D727-0066]")
1.309
>>> recorded_measurement("CS(=O)(=O)Nc1cnc(N2CCC(C(N)=O)(N3CCCCC3)CC2)c(C(=O)O)c1 [Compound F293-0183]")
"−0.4148"
>>> recorded_measurement("Nc1c(C(=O)NCC2CCCO2)sc(=S)n1-c1ccc(Cl)cc1 (stereo not drawn) [Compound F128-0076]")
"−1.451"
>>> recorded_measurement("CCCN1CCN(c2ccc(C(=O)O)cc2NC(=O)c2ccccc2Cl)CC1 [Compound F086-0004]")
1.076
>>> recorded_measurement("Fc1ccc(OCc2nn3c(-c4ccccn4)nnc3s2)cc1 [Compound D727-0525]")
1.066
>>> recorded_measurement("COc1ccc(OC)c(S(=O)(=O)Nc2cnc(N3CCCC3)c(C(=O)O)c2)c1 [Cpd F293-0436]")
1.264
>>> recorded_measurement("NC(=O)c1sc(=S)n2c1[nH]c(=O)c1ccc(Cl)cc12 [Compound F083-0067]")
0.84

# Auto Zscore Rep 2 lookup, item COCCCNC(=O)CN1CCN(c2ccc(C(=O)O)cc2NC(=O)c2ccccc2Cl)CC1 [Compound F086-0033]
−0.1907

Now try Cc1nn2c(=O)cc(COc3ccc(C)c(C)c3)nc2s1 [Cpd C679-2752] .
−0.9427

* * *

// values below are reported Z socre Rep2
Biological target: SpCas9 (Streptococcus pyogenes serotype M1, UniProt Q99ZW2)
Sequence (Q99ZW2 whole entry): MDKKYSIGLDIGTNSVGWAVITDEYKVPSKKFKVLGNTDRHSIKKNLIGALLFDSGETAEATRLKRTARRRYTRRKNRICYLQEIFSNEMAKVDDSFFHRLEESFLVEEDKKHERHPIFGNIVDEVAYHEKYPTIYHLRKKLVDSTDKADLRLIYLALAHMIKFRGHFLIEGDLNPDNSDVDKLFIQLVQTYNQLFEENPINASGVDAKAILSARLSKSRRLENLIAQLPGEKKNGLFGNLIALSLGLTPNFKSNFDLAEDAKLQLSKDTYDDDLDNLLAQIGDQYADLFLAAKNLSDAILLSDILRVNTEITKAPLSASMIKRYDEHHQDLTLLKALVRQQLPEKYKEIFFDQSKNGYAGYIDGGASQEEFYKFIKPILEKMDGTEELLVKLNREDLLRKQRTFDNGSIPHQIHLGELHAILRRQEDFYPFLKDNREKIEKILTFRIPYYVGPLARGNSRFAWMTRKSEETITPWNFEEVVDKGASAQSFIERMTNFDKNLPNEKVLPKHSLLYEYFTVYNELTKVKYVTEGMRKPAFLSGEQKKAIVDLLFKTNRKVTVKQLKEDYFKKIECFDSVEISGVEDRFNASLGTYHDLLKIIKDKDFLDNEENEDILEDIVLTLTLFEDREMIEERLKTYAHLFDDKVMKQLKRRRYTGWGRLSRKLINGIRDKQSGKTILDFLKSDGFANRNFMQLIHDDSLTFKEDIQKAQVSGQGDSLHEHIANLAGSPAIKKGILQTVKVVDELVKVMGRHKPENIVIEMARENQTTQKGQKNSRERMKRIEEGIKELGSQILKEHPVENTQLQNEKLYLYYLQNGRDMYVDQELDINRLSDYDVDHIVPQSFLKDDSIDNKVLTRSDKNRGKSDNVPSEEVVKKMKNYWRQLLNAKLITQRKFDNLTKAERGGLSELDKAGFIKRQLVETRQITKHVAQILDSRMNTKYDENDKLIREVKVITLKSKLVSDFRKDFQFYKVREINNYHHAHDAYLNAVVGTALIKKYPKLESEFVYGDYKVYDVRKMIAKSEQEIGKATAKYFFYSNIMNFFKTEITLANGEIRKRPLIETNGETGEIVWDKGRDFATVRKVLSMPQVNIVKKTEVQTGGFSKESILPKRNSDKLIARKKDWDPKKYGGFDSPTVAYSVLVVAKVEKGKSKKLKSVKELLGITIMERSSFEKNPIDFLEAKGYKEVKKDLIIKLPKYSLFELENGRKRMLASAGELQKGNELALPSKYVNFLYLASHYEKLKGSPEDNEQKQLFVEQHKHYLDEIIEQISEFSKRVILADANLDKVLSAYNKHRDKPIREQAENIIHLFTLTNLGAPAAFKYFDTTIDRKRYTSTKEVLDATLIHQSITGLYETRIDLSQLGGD
Assay: eGFP disruption assay, SpCas9, U2OS.eGFP.PEST cells
Assay type: cell-based
Conditions: replicate 2
Reply briefly: the number, and no unit.

Please review the following examples before continuing.
>>> recorded_measurement("Fc1ccc(-c2nn3c(-c4ccncc4)nnc3s2)cc1Br")
"−0.88"
>>> recorded_measurement("c1ccc(-c2nnc3sc(-c4cc5ccccc5o4)nn23)nc1")
"−2.07"
>>> recorded_measurement("COCCCNC(=O)CN1CCN(c2ccc(C(=O)O)cc2NC(=O)c2ccccc2Cl)CC1")
"−2.23"
>>> recorded_measurement("COc1ccc(-c2nn3c(-c4ccc5ccccc5n4)nnc3s2)cc1OC")
"−1.19"
>>> recorded_measurement("Fc1cccc(-c2nnc3sc(CCCc4ccccc4)nn23)c1")
"−3.13"
>>> recorded_measurement("O=C(NC1CCCC1)c1cccc(Oc2cc(-c3ccccc3)ncn2)c1")
0.05

# Z socre Rep2 lookup, item c1cncc(-c2nnc3sc(Cc4ccc5c(c4)OCCO5)nn23)c1
−0.75

Now try Fc1cccc(-c2nn3c(-c4ccc5ccccc5n4)nnc3s2)c1 .
−0.74

* * *

Molecular target: SaCas9 (Staphylococcus aureus)
Sequence (J7RUA5 1-1053): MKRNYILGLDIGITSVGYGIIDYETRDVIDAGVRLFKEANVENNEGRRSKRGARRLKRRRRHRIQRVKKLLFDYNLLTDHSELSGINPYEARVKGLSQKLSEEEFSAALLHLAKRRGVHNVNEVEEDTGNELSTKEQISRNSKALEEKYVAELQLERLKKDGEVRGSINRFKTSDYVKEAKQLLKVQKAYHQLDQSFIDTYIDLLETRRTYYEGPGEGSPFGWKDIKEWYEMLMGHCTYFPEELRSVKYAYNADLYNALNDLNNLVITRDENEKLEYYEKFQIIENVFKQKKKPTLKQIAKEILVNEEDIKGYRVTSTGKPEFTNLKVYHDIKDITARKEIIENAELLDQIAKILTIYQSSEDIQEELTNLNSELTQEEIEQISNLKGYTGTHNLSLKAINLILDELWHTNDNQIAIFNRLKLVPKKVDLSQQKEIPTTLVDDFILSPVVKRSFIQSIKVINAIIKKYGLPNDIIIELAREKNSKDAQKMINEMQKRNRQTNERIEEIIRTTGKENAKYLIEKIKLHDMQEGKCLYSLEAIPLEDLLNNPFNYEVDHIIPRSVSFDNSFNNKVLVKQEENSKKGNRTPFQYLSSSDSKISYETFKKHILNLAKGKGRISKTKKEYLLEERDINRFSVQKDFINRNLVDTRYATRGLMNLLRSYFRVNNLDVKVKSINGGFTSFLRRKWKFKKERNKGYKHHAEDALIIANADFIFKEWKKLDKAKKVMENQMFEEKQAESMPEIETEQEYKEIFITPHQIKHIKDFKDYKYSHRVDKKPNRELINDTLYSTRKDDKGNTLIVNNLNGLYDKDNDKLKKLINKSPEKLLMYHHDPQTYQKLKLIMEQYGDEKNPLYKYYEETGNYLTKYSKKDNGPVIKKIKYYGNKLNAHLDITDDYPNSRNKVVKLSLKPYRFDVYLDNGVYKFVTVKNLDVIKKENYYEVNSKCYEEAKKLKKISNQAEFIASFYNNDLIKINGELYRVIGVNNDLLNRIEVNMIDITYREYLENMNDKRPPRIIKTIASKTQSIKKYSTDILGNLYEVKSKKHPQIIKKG
Assay: Strand displacement assay, SaCas9 primary screen
Format: biochemical
Conditions: SaCas9 primary screen, Auto Zscore, replicate 1
// values below are reported Auto Zscore Rep 1

Please review the following examples before continuing.
>>> recorded_measurement("O=c1ccc2ccc(OCc3nnn[nH]3)cc2o1 [Cpd D715-0997]")
1.322
>>> recorded_measurement("Cc1cc(C)c(S(=O)(=O)Nc2cnc(N3CCCC3)c(C(=O)O)c2)cc1C [Cpd F293-0458]")
1.794
>>> recorded_measurement("CCSc1nc2c(c(=O)[nH]1)C(c1ccc(O)c(O)c1)CC(=O)N2 (stereo not drawn) [Cpd D271-0002]")
"−0.5592"
>>> recorded_measurement("O=C1CC(c2ccc(O)c(O)c2)c2c(nc(SCc3cccc(Cl)c3)[nH]c2=O)N1 (stereo not drawn) [Cpd D271-0012]")
0.2548

# Auto Zscore Rep 1 lookup, item CC1(C)CC(=O)C2=C(C1)Nc1onc(C(C)(C)C)c1C2c1ccc(O)c(O)c1 (stereo not drawn) [Cpd D733-0293]
−1.043

Now try O=C(c1ccccc1)c1cnc2ccc(F)cc2c1S(=O)(=O)c1ccc(F)cc1 [Cpd C770-0245] .
0.1661

Now try Cc1cc(C)c(S(=O)(=O)Nc2cnc(N(CC(C)C)CC(C)C)c(C(=O)O)c2)cc1C [Cpd F293-0589] .
1.656

Now try CCCCN(CC)c1ncc(NS(C)(=O)=O)cc1C(=O)O [Cpd F293-0529] .
0.1547
